# Blackgrass plant response rating annotations
# Tested on: blackgrass
# Experiment: Test B pre/postemergence blackgrass
# Assay type: in vivo, Alopecurus myosuroides
# Condition parameters: Preemergence, Rate 500 g/ha; scale 0 (no effect) to 10 (complete control)

Below are worked cases with known answers.
{"columns": ["Compound", "Observed result"],
 "data": [
  ["CCN(Cc1ccccc1)C(=O)n1oc(=O)n(-c2c(C)cccc2C)c1=O [Compound 70]", 0],
  ["CC(C)N(C(=O)n1oc(=O)n(-c2c(Cl)cccc2Cl)c1=O)c1ccc(F)cc1 [Compound 19]", 3],
  ["CCN(CC)C(=O)n1oc(=O)n(-c2cc(Cl)cc(Cl)c2)c1=O [Compound 11]", 0],
  ["CC(C)N(C(=O)n1oc(=O)n(Cc2ccccc2)c1=O)c1ccc(F)cc1 [Compound 78]", 6],
  ["CC(C)N(C(=O)n1oc(=O)n(Cc2ccccc2)c1=O)c1ccc(F)cc1F [Compound 79]", 6]
]}

Req: Name the recorded Blackgrass plant response rating for CC(C)N(C(=O)n1oc(=O)n(-c2cccc3c2CCCC3)c1=O)c1ccc(F)cc1 [Compound 90] .
Resp: 6

Req: How about this compound: CC(C)N(C(=O)n1oc(=O)n(-c2ccccc2)c1=O)c1ccc(F)cc1 [Compound 38]
Resp: 10

Req: Would you kindly repeat that for CC(C)N(C(=O)n1oc(=O)n(-c2ccc(Cl)cc2Cl)c1=O)c1ccc(F)cc1 [Compound 7] ?
Resp: 0
